- Assayed System: T1, GRIP1_4, Q9Y3R0
- T1 sequence (Q9Y3R0 467-571, limits assumed, looked up): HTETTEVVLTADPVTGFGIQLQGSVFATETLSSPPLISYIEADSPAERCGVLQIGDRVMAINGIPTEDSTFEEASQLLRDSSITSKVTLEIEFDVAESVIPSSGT
- Protocol Notes: holdup assay
- Design: key: below the threshold = too weak to quantify, mostly under pKd 3.1 to 4
- Experimental Parameters: plain residues with an end cap or a label only (N-terminal biotin on a linker: ahx)
Reported Endpoint: pKd

INSERT INTO assay_data (binder, reported_endpoint, result) VALUES
  ('RRRKRKRTYL [HPV49-L2, P36762]', 'pKd', 4.04),
  ('PSASCAVTAA [PDLIM4, P50479;P50479-2]', 'pKd', 'below the threshold'),
  ('GYDWGPATDL [TJP3, O95049]', 'pKd', 'below the threshold'),
  ('TVICWPGSLV [LNX2, Q8N448]', 'pKd', 'below the threshold'),
  ('LSDPSVSTVV [GRIN1, Q05586;Q05586-2]', 'pKd', 'below the threshold'),
  ('RAVEEEESRF [PSCDBP, O60759]', 'pKd', 'below the threshold');

The origin of these recorded values is paper PMC9482650.
